# MEASURED_TARGET: Troponin I, cardiac muscle (Homo sapiens) + Troponin T, cardiac muscle (Homo sapiens) + Troponin C, slow skeletal and cardiac muscles (Homo sapiens) (UniProt P19429+P45379+P63316)
# MEASUREMENT_PROTOCOL: cardiac RTF calcium sensitivity activators, confirmation, biochemical, IANBD-TnC fluorescence, triplicate (AID 504383);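 also: 0% = DMSO at 0.472 mM calcium and 100% = DMSO at 2.9 mM calcium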
# EXPERIMENTAL_CONTEXT: IANBD-labeled cardiac RTF, Ca2+ sensitivity fluorescence; at 7.2 µM; hits give high values; scaled from EC20 to saturating calcium; tested at EC20 calcium, 0.472 mM
The campaign covered roughly 2,500 compounds. About 1,200 (48%) were called active. The set was probably picked from earlier hits. The list shows a part of the results.
Assign activation to each entry below.
Reply numerically in %, unit not repeated.

Just so you know, measured activation for CN(Cc1ccccc1)C(=O)c1ccc(NC(=O)Cc2ccc(NC(=O)C3CCCN(S(=O)(=O)c4cccc([N+](=O)[O-])c4)C3)cc2)cc1 (centres undefined) came out at 6.95

Just so you know, measured activation for C(=N\c1nc2ccccc2n1CCN1CCOCC1)/c1cccs1 came out at 2.67

Just so you know, measured activation for CC(C)C(C(=O)O)N1C(=O)/C(=C/c2cccn2C)SC1=S (centres undefined) came out at 21.6

Just so you know, measured activation for COc1ccc2[nH]c(C)c(CCN(Cc3cccs3)C(=S)Nc3ccc(F)cc3)c2c1 came out at 12.4

Just so you know, measured activation for CC1(C)CC(N2CCCC2)=CC(=[N+]2CCCCC2)C1 came out at 16

Just so you know, measured activation for CC(C)CC[C@@H](O)[C@](C)(O)C1CC[C@@]2(O)C3=CC(=O)[C@@H]4C[C@@H](O)[C@@H](O)C[C@]4(C)C3CC[C@]12C (some centres undefined) came out at 279

Just so you know, measured activation for Cc1ccc2[nH]c(C)c(/C=C/c3cc[n+](C)cc3)c2c1 came out at 171

Just so you know, measured activation for CN1C2CCC1/C(=C/c1cccn1C)C(=O)/C2=C\c1cccn1C came out at 9.37

Just so you know, measured activation for COc1ccc(C(=O)NCC(=O)N2CCN(C(=O)c3ccco3)CC2)cc1OC came out at 47.6
